B1: F-BAR and double SH3 domains protein 1, residues 467 to 528; numbered along this chain, Q86WN1 (parent)
chain: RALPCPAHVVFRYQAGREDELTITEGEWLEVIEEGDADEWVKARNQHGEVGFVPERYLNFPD

Variants of: B1
Assay: abundance fitness (aPCA) (normalised: wild type 0, dead -1); higher = more abundant; growth selection in yeast, the domain comes from the species named
Conditions: Homo sapiens
Quick reference for abundance fitness among some variants
endpointName: abundance fitness

1. H8L = -0.202
2. A43H = -0.629
3. D19Y = -0.04
4. I32P = -0.726
5. Q14D = 0.014
6. E25T = 0.038
7. L21I = -0.49
8. E33M = -0.266
9. V31Q = -1.03
10. P4C = -0.346
11. L21V = -0.456
12. Q14W = -0.481
